system: Pseudomonas aeruginosa ATCC 27853; type: cell-based; details: ATCC 27853
Bridge positions count the residues as written; N and C are the ends. Square brackets hold non-standard residues; d marks the D form. Peptide text beside a SMILES is read from it. * marks the point of attachment. Dab(CH2SO3H) = N[C@@H](CCNCS(=O)(=O)O)C(=O)O; Heptanoyl(6-Me) = CC(C)CCCCC(=O)*; Dab = NCC[C@H](N)C(=O)O; Dap = NC[C@H](N)C(=O)O
Endpoint Label: MIC (mg/L)
Give bare numbers, in mg/L.

| Compound | MIC (mg/L) |
| --- | --- |
| CC(C)CCCCC(=O)N[C@@H](CN)C(=O)N[C@H](C(=O)N[C@H](CO)C(=O)N[C@H]1CCNC(=O)[C@H]([C@@H](C)O)NC(=O)[C@H](CCN)NC(=O)[C@H](CCN)NC(=O)[C@H]([C@@H](C)O)NC(=O)[C@@H](Cc2ccccc2)NC(=O)[C@H](CCN)NC1=O)[C@@H](C)O [Compound 52] ({Heptanoyl(6-Me)}-[Dap]T[dS][Dab][Dab][dF]T[Dab][Dab]T; lactam 4-C) | 64 |

## Task Consider the compound CC(C)CCCCC(=O)N[C@@H](CCN)C(=O)N[C@H](C(=O)N[C@@H](CN)C(=O)N[C@H]1CCNC(=O)[C@H]([C@@H](C)O)NC(=O)[C@H](CCN)NC(=O)[C@H](CCNCS(=O)(=O)O)NC(=O)[C@H]([C@@H](C)O)NC(=O)[C@@H](Cc2ccccc2)NC(=O)[C@H](CCN)NC1=O)[C@@H](C)O [Compound 119] ({Heptanoyl(6-Me)}-[Dab]T[Dap][Dab][Dab][dF]T[Dab(CH2SO3H)][Dab]T; lactam 4-C) and give its measured MIC.
## Result 0.25
